Provide the reported %Inh of each item.
System: TRPM6;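 also: KINOMEscan kinase panel screen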
Assay setup: concentration: 1 μM, replicates: in singlicate; n = 1
Answers are plain numbers, in %.

Please review the entries below; each comes with its answer.
> print(dat)
                              line.notation  assay.value
1  Cc1ccc(-c2ccc3c(ccc4sc5c(c43)NC[C@@H](C)N=C5N(C)C)n2)cn1            0
2    CN(C)c1cc(-c2ccc3c(N)n[nH]c3c2)nc(N)n1           13
3     Nc1nc(-c2ccccc2F)c(-c2ccnc3ccccc23)s1           32
4  Cc1nn2c(=O)cc(N3CCOCC3)nc2n1Cc1cccc(Cl)c1Cl            0

Batch request: %Inh for each of the following compounds.
1. COc1ccc(-c2coc3ccc(-c4nnc(SCc5cccc(C#N)c5)o4)cc23)cc1
2. Fc1cccc(CSc2nnc(-c3ccc4c(c3)CCO4)o2)c1
3. CN1C(=O)C(Nc2ccccc2)=C(c2ccccc2)C1=O
4. COc1ccc(-c2cc3c(C)nc(N)nc3n([C@H]3CC[C@H](O)CC3)c2=O)cn1

1. 0
2. 0
3. 0
4. 0

Batch request: %Inh for each of the following compounds.
1. COc1cc2ncn(-c3cc(OCc4ccncc4Br)c(C(N)=O)s3)c2cc1OC
2. CCCC(=O)Nc1n[nH]c2ncc(-c3cccc4ccccc34)cc12
3. Cn1c(=O)c(F)c(Nc2ccc(I)cc2F)c2c(=O)n(OC[C@H](O)CO)cnc21
4. Cl.c1ccc(Cn2cnc3cc(Nc4ncnc5ccccc45)ccc32)cc1
5. Cc1ccccc1COc1cc(-n2cnc3cc(Cl)ccc32)sc1C(N)=O
6. Nc1ncnc2c1ncn2-c1ccc(Cl)cc1

[0, 48, 0, 0, 0, 44]
